- measured target: Clostridium difficile toxin A, soluble full-length (TechLab) (Clostridium difficile, UniProt P16154 1-2710)
- protocol: cell-based or functional assay
parameter: IC50, Vero cell viability (neutralization), Trial 2, 32 pM Toxin A (pM)
Kindly provide the numeric value in pM only, without the unit symbol.

Examples from the recorded data:
• H1M3117N (antibody, V domains shown) VH: EVQLLESGGGLAQPGGSLRLSCAASGFNFGTHDMSWVRQAPGKGLEWVSGLTSTGGSASSADSVKGRFTISRDNSKNILYLQMNSLRAEDTAVYYCAKTFNWNSYFDYWGQGTLVTVSS VL: EIVLTQSPGTLSLSPGERATLSCRASQSISTYYLAWYQQKPDQPPRLLIYGTSSRATGIPDRFSGSGSGTDFTLTISRLDPEDFAVYYCQQYGNSLYTFGQGTKLEIK = 11
• H2M3123N (antibody, V domains shown, also called H2aM3123N; H1M3123N) VH: DVQLVESGGDFVQPGGSLRLSCAASGVAFNDYEMNWIRQAPGKRLEWISHIDSSGTIIYYADSVKGRFTISRDSAKNSLFLQMDSLRAEDTAVYYCARERYSHYGYYYFGMDVWGQGTTVTVSS VL: DIQMTQSPSTLSASVGDRVTITCRASQNIDNWLAWYQQKTGKAPNLLIYKASTLESGVPSRFSGSGSGTEFTLTIISLQPDDFATYYCQEYNTYSRTFGQGTKVEIK = 24

Consider now this further binder.
Entry under review: H2M3121N (antibody, V domains shown, also called H2aM3121N; H1M3121N) VH: EVQLVESGGDLVQPGGSLRLSCAASGVTFRTYEMNWVRQAPGKGLEWISHISSSGDIIYYTKSVKGRFTISRDNAKNSLFLQMTSLRAEDTAVYYCARERYSQYGYYYFGMDVWGQGTTVTVSS VL: DIQMTQSPSTLSASIGDRVTITCRASQNTDKWMAWYQQKAGKAPKLLIYKASILESGVPSRFSGSGSGTEFTLTISSLQPDDFATYYCQEYNTYFRAFGQGTKVETR . Reported IC50, Vero cell viability (neutralization), Trial 2, 32 pM Toxin A?
35

These entries and their values trace back to patent US20160264650A1.
